This section presents compounds with their documented % Change (Ph+HPV/Phxl00) in Male CM Capture values.
- Test system: male codling moth
- assayName: Pheromone preference paired-trap test: pheromone alone vs pheromone + HPV
- Type: in vivo, Cydia pomonella
- cond: Table 9
measuredParameter: % Change (Ph+HPV/Phxl00) in Male CM Capture (%)

[
  {
    "compound": "C=C/C(C)=C/C/C=C(\\C)CCC=C(C)C [alpha-Farnesene]",
    "testedTarget": "male codling moth",
    "numericValue": 86
  },
  {
    "compound": "C=C1/C=C/[C@H](C(C)C)CC/C(C)=C/CC1 [Germacrene-D]",
    "testedTarget": "male codling moth",
    "numericValue": 109
  },
  {
    "compound": "C=CC(=C)CCC=C(C)C [Myrcene]",
    "testedTarget": "male codling moth",
    "numericValue": 84
  },
  {
    "compound": "CC1=CCC(C(C)C)=CC1 [gamma-Terpinene]",
    "testedTarget": "male codling moth",
    "numericValue": 93
  }
]

###

- System: codling moth
- assayName: Trap capture with purified (2E,4E) and (2E,4Z) 2,4-decadienoic acid esters
- Type: in vivo, Cydia pomonella
- cond: 1 mg dose/gray septum; four orchards; means of 21 trap checks
measuredParameter: FEMALE CM Captured: ♂♂/trap/night ± SEM

[
  {
    "compound": "CCCCC/C=C/C=C/C(=O)OC [Methyl (2E,4E)-2,4-Decadienoate]",
    "result": "0.04 ± 0.03 ♀♀/trap/night"
  },
  {
    "compound": "CCCCC/C=C\\C=C\\C(=O)OC [Methyl (2E,4Z)-2,4-Decadienoate]",
    "result": "0.41 ± 0.14 ♀♀/trap/night"
  },
  {
    "compound": "CCCCC/C=C/C=C/C(=O)OCCCC [Butyl (2E,4E)-2,4-Decadienoate]",
    "result": "0 ♀♀/trap/night"
  },
  {
    "compound": "CCCCC/C=C\\C=C\\C(=O)OCCC [n-Propyl (2E,4Z)-2,4-Decadienoate]",
    "result": "1.12 ± 0.39 ♀♀/trap/night"
  },
  {
    "compound": "CCCCC/C=C/C=C/C(=O)OCCC [n-Propyl (2E,4E)-2,4-Decadienoate]",
    "result": "0.19 ± 0.07 ♀♀/trap/night"
  },
  {
    "compound": "CCCCC/C=C\\C=C\\C(=O)OCCCCCC [Hexyl (2E,4Z)-2,4-Decadienoate (100%), Hexyl (2E,4Z)-2,4-Decadienoate]",
    "result": "0.02 ♀♀/trap/night"
  },
  {
    "compound": "CCCCC/C=C\\C=C\\C(=O)OCCCCCC [Hexyl (2E,4Z)-2,4-Decadienoate (91. 6%), Hexyl (2E,4Z)-2,4-Decadienoate]",
    "result": "0.36 ± 0.18 ♀♀/trap/night"
  },
  {
    "compound": "CCCCC/C=C/C=C/C(=O)OC(C)C [Isopropyl (2E,4E)-2,4-Decadienoate]",
    "result": "0.09 ± 0.04 ♀♀/trap/night"
  }
]

###

Listing of entries alongside the reported Total CM Captured: CM/trap/night ± SEM.
- System: codling moth
- assayName: Trap capture with purified (2E,4E) and (2E,4Z) 2,4-decadienoic acid esters
- Format: in vivo, Cydia pomonella
- cond: 1 mg dose/gray septum; four orchards; means of 21 trap checks
measuredParameter: Total CM Captured: CM/trap/night ± SEM (CM/trap/night)

[
  {
    "compound": "CCCCC/C=C/C=C/C(=O)OCC [Ethyl (2E,4E)-2,4-Decadienoate]",
    "measuredParameter": "Total CM Captured: CM/trap/night ± SEM",
    "numericValue": 0.77
  },
  {
    "compound": "CCCCC/C=C\\C=C\\C(=O)OCC [Ethyl (2E,4Z)-2,4-Decadienoate, #1 (95.3%)]",
    "measuredParameter": "Total CM Captured: CM/trap/night ± SEM",
    "numericValue": 4.49
  },
  {
    "compound": "CCCCC/C=C\\C=C\\C(=O)OCCCCCC [Hexyl (2E,4Z)-2,4-Decadienoate (91. 6%), Hexyl (2E,4Z)-2,4-Decadienoate]",
    "measuredParameter": "Total CM Captured: CM/trap/night ± SEM",
    "numericValue": 0.57
  },
  {
    "compound": "CCCCC/C=C\\C=C\\C(=O)OC [Methyl (2E,4Z)-2,4-Decadienoate]",
    "measuredParameter": "Total CM Captured: CM/trap/night ± SEM",
    "numericValue": 0.54
  },
  {
    "compound": "CCCCC/C=C\\C=C\\C(=O)OCC [Ethyl (2E,4Z)-2,4-Decadienoate, #2 (88.5%)]",
    "measuredParameter": "Total CM Captured: CM/trap/night ± SEM",
    "numericValue": 4.25
  },
  {
    "compound": "CCCCC/C=C\\C=C\\C(=O)OCCCCCC [Hexyl (2E,4Z)-2,4-Decadienoate (100%), Hexyl (2E,4Z)-2,4-Decadienoate]",
    "measuredParameter": "Total CM Captured: CM/trap/night ± SEM",
    "numericValue": 0.02
  },
  {
    "compound": "CCCCC/C=C/C=C/C(=O)OC [Methyl (2E,4E)-2,4-Decadienoate]",
    "measuredParameter": "Total CM Captured: CM/trap/night ± SEM",
    "numericValue": 0.05
  },
  {
    "compound": "C/C=C/C=C/CCCCCCCO [Pheromone, (E,E)-8,10-dodecadienol, reference compound]",
    "measuredParameter": "Total CM Captured: CM/trap/night ± SEM",
    "numericValue": 7.13
  },
  {
    "compound": "CCCCC/C=C/C=C/C(=O)OCCCC [Butyl (2E,4E)-2,4-Decadienoate]",
    "measuredParameter": "Total CM Captured: CM/trap/night ± SEM",
    "numericValue": 0.02
  },
  {
    "compound": "CCCCC/C=C/C=C/C(=O)OC(C)C [Isopropyl (2E,4E)-2,4-Decadienoate]",
    "measuredParameter": "Total CM Captured: CM/trap/night ± SEM",
    "numericValue": 0.14
  },
  {
    "compound": "CCCCC/C=C/C=C/C(=O)OCCC [n-Propyl (2E,4E)-2,4-Decadienoate]",
    "measuredParameter": "Total CM Captured: CM/trap/night ± SEM",
    "numericValue": 0.36
  },
  {
    "compound": "CCCCC/C=C\\C=C\\C(=O)OCCC [n-Propyl (2E,4Z)-2,4-Decadienoate]",
    "measuredParameter": "Total CM Captured: CM/trap/night ± SEM",
    "numericValue": 1.61
  }
]
